- System: K4 kissing-loop RNA reporter;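 note: bound reporter read as fluorescence of individual clusters on recovered sequencing chips by microscopy, with normalized cluster intensities fitted with a binding model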
- experiment-summary: apparent KD of K4 kissing-loop reporter; higher = weaker reporter binding
- test-parameters: Eterna round: R107; input ligand: FMN 200 uM
Would you mind telling me the reported apparent KD of K4 kissing-loop reporter of each entry?
Give bare numbers, in nM.

1) AGACGUUUGGGAAGGAGCGGAAUGUAAUACGGAACGCGUGGAGGUGCAGUGAUGUUGCAGAUCCAGGUAGGUCGCCCAAGGGACG [Esenraerve]; 94.1
2) UAUUAAGUGACGGCCGCCACUAUGGUGAUUUAUUUGUUUGAGUGAUGUUUUGAUGUUUGAUUUUGUAGGACCGGGUUAUGUGUUA [ttttcmullin]; 969
3) CGAGUCGGUUCAGAUACCAGCCAAUUAGAGUCGAGUGAUGUUCGACAAUGAACGUCCAAAGGCCCUUGGCAGCUGGAUUGGGAAC [Same State Theophylline B GF 20]; 157
4) UUAUUAAUCACAGAUACCAGUCCAGAAUGAAUACUAUAGUGAUGUUAUAAUAAAGGGAAGGACCCUUGGCAGCUGUAAUAUAUUU [AstrosSsTheB#2]; 525
5) GCCGUACGCAUGGAUACCAGUUGCGAAGUGAUGUUUCGGGCGAUCAAAGGAUCGCCAGACAACCCUUGGCAGCCAUGCGUACGGC; 757
6) AGUGAGUGAUGUUCACUGUACGUGUCUGAAGGAGCGACAUCGAUGUCAGGUAGGUCGCAGACAUGUCAUCUAUGGUGCGUGACCA [Arg A SS t10]; 124
7) UUUAUAUAGUCGGCCGCCACUGAUUUUUUUAUAUGUUUAUGUUUAUACGAGUGAUGUUCGAUAUACAGGACCGGGACUUUGGUUA [JR_SSTryptoB_Sub019]; 145
8) ACAGUCGGCUGUGAUACCAGUCGUAUUACAACAUGUUGCAGUGAUGUUGCGAGAUAGGAUGACCCUUGGCAGCACUCAGUACGAC [Same State Theophylline B GF10]; 208
9) UGUGUUUACCUGACUCAGUGAUGUUGAGAAGGAGCGUUCGAAAGAACAGGUAGGUCGCUCAACCUAAAUUCAGGUGAGCACUAAA; 264
10) CGAUGUUCCUGGGAUACCAGUCGGAGUCUCAGAGCUCGGAGUGAUGUUCUGGGAUGUUUCGGCCCUUGGCAGCUCUGGGACUCCU [#2 Exclusion - Theophylline B Attempt #22 (HarryS)]; 881

// batch mode: one apparent KD of K4 kissing-loop reporter value per listed entry
1. UCUGGUAUAUCUGAUACCAGAGUAUAGUAUCAAUUGAAUAUGGAGUGAUGUUCCAUACAACUCCCUUGGCAGCAGAUCUUCCUCU [Same State Theophylline B GF 23]
2. UGAUAGGACAGAAGGAGCGGAAGUGAUGUUUCCAAAUGGAAUAAGGUGUCAAAGACACCCUUCCAGGUAGGUCGCUGUCCUAUCU [ArgBX 15 #Palindromic #SwitchBubble #StaticStem]

-- reply
1. 145
2. 147

Where do the numbers come from? From the supplement of paper PMC9170038.
